Target: Human recombinant Histone Deacetylase 8 (HDAC8) (Homo sapiens (Human))
Assay: HDAC8 Enzymatic Assay (HDAC-Glo I/II luminescence)
Type: biochemical
Conditions: class symbols, Table 14; read-out: HDAC8 IC50
pIC50: −log10 of the molar value.
Readings of pIC50 for the listed compounds

Illustrative cases are given below, each with its answer.
COMPOUND | TARGET_OR_TEST_SYSTEM | pIC50
COCc1ccc(-c2cccc3nn(C(Cc4ccccc4)C(=O)NO)cc23)cc1 (stereo not drawn) | Human recombinant Histone Deacetylase 8 (HDAC8) (Homo sapiens (Human)) | 6.30 to 6.70
O=C(NO)C(Cc1ccccc1)n1ncc2cc(-c3cccnc3)ncc21 (stereo not drawn) | Human recombinant Histone Deacetylase 8 (HDAC8) (Homo sapiens (Human)) | 6.30 to 6.70

**Q:** Quick check: pIC50 of Cn1nccc1-c1cc2cnn(C(Cc3ccccc3)C(=O)NO)c2cn1 (stereo not drawn) ?
**A:** 6.30 to 6.70

* * *

Documented IC50 across a set of compounds
Molecular target: Human recombinant Histone Deacetylase 8 (HDAC8) (Homo sapiens (Human), UniProt Q9BY41)
Sequence (Q9BY41 whole entry): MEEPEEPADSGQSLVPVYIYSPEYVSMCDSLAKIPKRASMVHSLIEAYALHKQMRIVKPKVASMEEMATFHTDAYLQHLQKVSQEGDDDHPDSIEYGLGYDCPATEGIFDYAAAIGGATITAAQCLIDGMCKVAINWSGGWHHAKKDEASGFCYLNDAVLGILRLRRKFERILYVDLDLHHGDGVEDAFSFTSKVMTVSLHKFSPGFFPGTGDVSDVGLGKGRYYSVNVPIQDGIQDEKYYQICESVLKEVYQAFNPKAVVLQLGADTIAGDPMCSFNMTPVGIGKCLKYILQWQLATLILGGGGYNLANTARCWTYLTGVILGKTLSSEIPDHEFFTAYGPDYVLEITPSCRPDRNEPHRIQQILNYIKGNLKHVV
Test: HDAC8 Enzymatic Assay (HDAC-Glo I/II luminescence)
Assay type: biochemical
Conditions: class symbols, Table 14; read-out: HDAC8 IC50

**Q:** What IC50 value was documented for this compound, O=C(NO)C(Cc1ccccc1)n1nc2c(c1C#CC1CC1)CCCC2 (centres unmarked) [Compound I-0206] ?
**A:** ≤ 50 nM

**Q:** Same lookup for NC(=O)c1cccc(-c2cnc3c(cnn3C(Cc3ccccc3)C(=O)NO)c2)c1 (centres unmarked) [Compound I-0131] , please.
**A:** 200 to 500 nM

**Q:** Input Cn1cc(-c2ccc3nn(C(Cc4ccccc4)C(=O)NO)c(C#CC4CC4)c3c2)cn1 (centres unmarked) [Compound I-0044]
**A:** 50 to 200 nM

**Q:** Follow-up entry: Cn1nccc1-c1ccc2c(C(Cc3ccccc3)C(=O)NO)nn(C)c2c1 (centres unmarked) [Compound I-0203]
**A:** 50 to 200 nM

**Q:** Continue with Cn1nccc1-c1cccc2c1cnn2C(Cc1ccccc1)C(=O)NO (centres unmarked) [Compound I-0083]
**A:** 50 to 200 nM
